Below is a list of entries, each paired with its recorded pIC50 value.
# assayed target: human PD-1 (Jurkat-PD-1 cells) / PE-labeled human PD-L1-Ig (Homo sapiens, UniProt Q15116)
# Construct: expressed in transfected cells; host or cells: Jurkat cell line over-expressing human PD-1
# Sequence (Q15116 25-288): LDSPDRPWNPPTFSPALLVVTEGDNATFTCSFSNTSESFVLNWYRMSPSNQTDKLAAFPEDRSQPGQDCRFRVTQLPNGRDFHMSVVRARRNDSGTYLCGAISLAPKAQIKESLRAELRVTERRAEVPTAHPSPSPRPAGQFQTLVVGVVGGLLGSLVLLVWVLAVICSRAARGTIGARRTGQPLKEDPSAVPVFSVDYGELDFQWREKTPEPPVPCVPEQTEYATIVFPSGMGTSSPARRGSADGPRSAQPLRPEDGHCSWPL
# assay info: Jurkat-PD-1 Cell Binding High-Content Screening Assay (CBA); Jurkat hPD1-PDL1 assay
# assay setup: Jurkat cell line over-expressing human PD-1; PE-labeled PD-L1-Ig 20 nM final; compound incubated 2 hours at 37° C.; read-out: Jurkat HPD1-PDL1 IC50
Positions of bridges follow the written chain, without caps; N, C: chain ends. Non-standard residues stand in square brackets, D forms with d. Residues, ends and D or L forms follow the SMILES beside them. ξ: configuration not given here. Bip = N[C@@H](Cc1ccc(-c2ccccc2)cc1)C(=O)O; NMeF = CN[C@@H](Cc1ccccc1)C(=O)O; Thr(3ξ) = CC(O)[C@H](N)C(=O)O; NMeA = CN[C@@H](C)C(=O)O; Orn = NCCC[C@H](N)C(=O)O; Dab = NCC[C@H](N)C(=O)O; Dap = NC[C@H](N)C(=O)O; Sar = CNCC(=O)O
The read-out pIC50 is expressed as -log10 of concentration in moles per litre.

# count of solved cases: 5
[ask] # pIC50 lookup, item CC(C)C[C@@H]1NC(=O)[C@H](Cc2c[nH]c3ccccc23)NC(=O)[C@H](CC(=O)O)NC(=O)[C@H](Cc2ccc(O)cc2)NC(=O)[C@H](Cc2ccccc2)NC(=O)CSC[C@@H](C(=O)N[C@@H](CCCNC(=N)N)C(N)=O)NC(=O)[C@H](CO)NC(=O)[C@H](C(C)C)NC(=O)[C@H](CC(C)C)NC(=O)[C@H](CC(N)=O)NC(=O)CN(C)C(=O)[C@H](C)N(C)C(=O)[C@H](C(C)C)NC(=O)[C@H](Cc2ccc(-c3ccccc3)cc2)NC1=O [Example 1254] ({CH2CO}-FYDWL[Bip]V[NMeA][Sar]NLVSCR-NH2; thioether N-14)
[reply] 6.07

[ask] Try this compound next: CC(C)C[C@@H]1NC(=O)[C@H](Cc2c[nH]c3ccccc23)NC(=O)[C@H](CC(=O)O)NC(=O)[C@H](Cc2ccc(O)cc2)NC(=O)[C@H](CC(N)=O)NC(=O)CSC[C@@H](C(=O)N[C@@H](C)C(N)=O)NC(=O)[C@H]([C@@H](C)O)NC(=O)[C@H](C(C)C)NC(=O)[C@H](CC(C)C)NC(=O)[C@H](CCN)NC(=O)[C@H]2CCCN2C(=O)[C@H](CCCN)NC(=O)[C@H](C(C)C)NC(=O)[C@H](Cc2ccc(-c3ccccc3)cc2)NC1=O [Example 1402] ({CH2CO}-NYDWL[Bip]V[Orn][dP][Dab]LVTCA-NH2; thioether N-14)
[reply] 6.59

[ask] Try this compound next: CC(C)C[C@@H]1NC(=O)[C@H](Cc2c[nH]c3ccccc23)NC(=O)[C@H](CC(=O)O)NC(=O)[C@H](Cc2ccc(O)cc2)NC(=O)[C@H](Cc2ccccc2)NC(=O)CSC[C@@H](C(=O)NCC(N)=O)NC(=O)[C@H](C(C)O)NC(=O)[C@H](C(C)C)NC(=O)[C@H](CC(C)C)NC(=O)[C@H](CC(N)=O)NC(=O)CN(C)C(=O)[C@H](C)N(C)C(=O)[C@H](C(C)C)NC(=O)[C@H](Cc2ccc(-c3ccccc3)cc2)NC1=O (some centres unmarked) [Example 1109] ({CH2CO}-FYDWL[Bip]V[NMeA][Sar]NLV[Thr(3ξ)]CG-NH2; thioether N-14)
[reply] 6.46

[ask] Try this compound next: CC(C)C[C@@H]1NC(=O)[C@H](Cc2c[nH]c3ccccc23)NC(=O)[C@H](CC(=O)O)NC(=O)[C@H](Cc2ccc(O)cc2)NC(=O)[C@H](Cc2ccc(O)cc2)NC(=O)CSC[C@@H](C(=O)NCC(N)=O)NC(=O)[C@H](CO)NC(=O)[C@H](C(C)C)NC(=O)[C@H](CC(C)C)NC(=O)[C@H](CC(N)=O)NC(=O)CN(C)C(=O)[C@H](C)N(C)C(=O)[C@H](C(C)C)NC(=O)[C@H](Cc2ccc(-c3ccccc3)cc2)NC1=O [Example 1152] ({CH2CO}-YYDWL[Bip]V[NMeA][Sar]NLVSCG-NH2; thioether N-14)
[reply] 6.13

[ask] Try this compound next: CC(C)C[C@@H]1NC(=O)[C@H](Cc2c[nH]c3ccccc23)NC(=O)[C@H](CC(=O)O)NC(=O)[C@H](Cc2ccc(O)cc2)NC(=O)[C@H](Cc2ccccc2)NC(=O)CSC[C@@H](C(=O)NCC(N)=O)NC(=O)[C@H](CC(N)=O)NC(=O)[C@H](C(C)C)NC(=O)[C@H](CC(C)C)NC(=O)[C@H](CC(N)=O)NC(=O)CN(C)C(=O)[C@H](C)N(C)C(=O)[C@H](C(C)C)NC(=O)[C@H](Cc2ccc(-c3ccccc3)cc2)NC1=O [Example 1228] ({CH2CO}-FYDWL[Bip]V[NMeA][Sar]NLVNCG-NH2; thioether N-14)
[reply] 6.14

New cases:
[ask] # pIC50 lookup, item CC(C)C[C@@H]1NC(=O)[C@H](Cc2c[nH]c3ccccc23)NC(=O)[C@H](CC(=O)O)NC(=O)[C@H](Cc2ccc(O)cc2)NC(=O)[C@H](Cc2ccccc2)NC(=O)CSC[C@@H](C(=O)NCC(N)=O)NC(=O)[C@H](CO)NC(=O)[C@H](C(C)C)NC(=O)[C@H](CC(C)C)NC(=O)[C@H](CCN)NC(=O)[C@H]2CCCN2C(=O)[C@H](CCN)NC(=O)[C@H](C(C)C)NC(=O)[C@H](Cc2ccc(-c3ccccc3)cc2)NC1=O [Example 1417] ({CH2CO}-FYDWL[Bip]V[Dab][dP][Dab]LVSCG-NH2; thioether N-14)
[reply] 7.15

[ask] Try this compound next: CC(C)C[C@@H]1NC(=O)[C@H](CCCNC(=N)N)NC(=O)[C@H](Cc2ccccc2)N(C)C(=O)[C@H](C)N(C)C(=O)[C@H](CCCNC(=N)N)NC(=O)[C@H](Cc2ccc(-c3ccccc3)cc2)NC(=O)[C@H](C(C)C)NC(=O)[C@H](Cc2c[nH]c3ccccc23)NC(=O)[C@H](CC(=O)O)NC(=O)[C@H](Cc2ccc(O)cc2)NC(=O)[C@H](CCCNC(=N)N)NC(=O)CSC[C@@H](C(=O)NCC(N)=O)NC(=O)[C@H](CO)NC(=O)[C@H](C(C)C)NC1=O [Example 1212] ({CH2CO}-RYDWV[Bip]R[NMeA][NMeF]RLVSCG-NH2; thioether N-14)
[reply] 6.21

[ask] Try this compound next: CC(C)C[C@@H]1NC(=O)[C@H](CCCNC(=N)N)NC(=O)[C@H](Cc2ccccc2)N(C)C(=O)[C@H](C)N(C)C(=O)[C@H](CN)NC(=O)[C@H](Cc2ccc(-c3ccccc3)cc2)NC(=O)[C@H](C(C)C)NC(=O)[C@H](Cc2c[nH]c3ccccc23)NC(=O)[C@H](CC(=O)O)NC(=O)[C@H](Cc2ccc(O)cc2)NC(=O)[C@H](Cc2ccccc2)NC(=O)CSC[C@@H](C(=O)NCC(N)=O)NC(=O)[C@H](CO)NC(=O)[C@H](C(C)C)NC1=O [Example 1242] ({CH2CO}-FYDWV[Bip][Dap][NMeA][NMeF]RLVSCG-NH2; thioether N-14)
[reply] 6.62
